# EXPERIMENT_NOTES: Cytotoxicity against human Huh-7 cells assessed as reduction in cell viability incubated for 24 hrs by MTT assay
# Format: toxicity, cell-based
Lab note: compare CC50 at 24 h with 100 µM, writing Satisfied if less and Not satisfied if equal or more.

- STRUCTURE_AS_SMILES: "COc1cccc(-c2nnn(CCCN3CCN(c4ccnc5cc(Cl)ccc45)CC3)n2)c1"
  CLASS: "Not satisfied"
- STRUCTURE_AS_SMILES: "CC(C)c1ccc(-c2nnn(CC(=O)N3CCN(c4ccnc5cc(Cl)ccc45)CC3)n2)cc1"
  CLASS: "Not satisfied"
- STRUCTURE_AS_SMILES: "COc1ccc(-c2nnn(CCCN3CCN(c4ccnc5cc(Cl)ccc45)CC3)n2)cc1OC"
  CLASS: "Not satisfied"
- STRUCTURE_AS_SMILES: "Clc1ccc(-c2nnn(CCCN3CCN(c4ccnc5cc(Cl)ccc45)CC3)n2)cc1"
  CLASS: "Not satisfied"
- STRUCTURE_AS_SMILES: "O=[N+]([O-])c1cccc(-c2nnn(CCCN3CCN(c4ccnc5cc(Cl)ccc45)CC3)n2)c1"
  CLASS: "Satisfied"
- STRUCTURE_AS_SMILES: "Clc1ccc2c(N3CCN(CCCn4nnc(-c5cccc(Br)c5)n4)CC3)ccnc2c1"
  CLASS: "Not satisfied"
- STRUCTURE_AS_SMILES: "O=C(Cn1nnc(-c2ccc(F)cc2)n1)N1CCN(c2ccnc3cc(Cl)ccc23)CC1"
  CLASS: "Satisfied"
- STRUCTURE_AS_SMILES: "Clc1ccc2c(N3CCN(CCCn4nnc(-c5ccc(Br)cc5)n4)CC3)ccnc2c1"
  CLASS: "Not satisfied"
- STRUCTURE_AS_SMILES: "O=C(Cn1nnc(-c2cccc(Cl)c2)n1)N1CCN(c2ccnc3cc(Cl)ccc23)CC1"
  CLASS: "Not satisfied"
- STRUCTURE_AS_SMILES: "Cc1ccc(-c2nnn(CCCN3CCN(c4ccnc5cc(Cl)ccc45)CC3)n2)cc1"
  CLASS: "Not satisfied"
- STRUCTURE_AS_SMILES: "O=C(Cn1nnc(-c2ccc(Cl)cc2)n1)N1CCN(c2ccnc3cc(Cl)ccc23)CC1"
  CLASS: "Not satisfied"

====

# EXPERIMENT_NOTES: Selectivity index, ratio of CC50 for human Huh-7 cells to IC50 for antiplasmodial activity against chloroquine resistant Plasmodium falciparum INDO infected in human erythrocytes
# Type: toxicity, cell-based
# MEASUREMENT_CONDITIONS: read-out: Ratio CC50/IC50

- STRUCTURE_AS_SMILES: "O=C(Cn1nnc(-c2ccc(Cl)cc2)n1)N1CCN(c2ccnc3cc(Cl)ccc23)CC1"
  selectivity ratio: "> 28.7"
- STRUCTURE_AS_SMILES: "CC(C)c1ccc(-c2nnn(CCCN3CCN(c4ccnc5cc(Cl)ccc45)CC3)n2)cc1"
  selectivity ratio: "> 47.8"
- STRUCTURE_AS_SMILES: "O=C(Cn1nnc(-c2cccc(F)c2)n1)N1CCN(c2ccnc3cc(Cl)ccc23)CC1"
  selectivity ratio: "> 47.3"
- STRUCTURE_AS_SMILES: "Clc1ccc2c(N3CCN(CCCn4nnc(-c5cccc(Br)c5)n4)CC3)ccnc2c1"
  selectivity ratio: "> 56.8"
- STRUCTURE_AS_SMILES: "Clc1ccc2c(N3CCN(CCCn4nnc(-c5ccc(Br)cc5)n4)CC3)ccnc2c1"
  selectivity ratio: 128

====

# EXPERIMENT_NOTES: Resistance index, ratio of IC50 of chloroquine resistant Plasmodium falciparum INDO to chloroquine sensitive Plasmodium falciparum 3D7
# Type: functional

- STRUCTURE_AS_SMILES: "COc1cccc(-c2nnn(CCCN3CCN(c4ccnc5cc(Cl)ccc45)CC3)n2)c1"
  Ratio IC50: 0.77
- STRUCTURE_AS_SMILES: "CC(C)c1ccc(-c2nnn(CC(=O)N3CCN(c4ccnc5cc(Cl)ccc45)CC3)n2)cc1"
  Ratio IC50: 0.42
- STRUCTURE_AS_SMILES: "O=C(Cn1nnc(-c2cccc([N+](=O)[O-])c2)n1)N1CCN(c2ccnc3cc(Cl)ccc23)CC1"
  Ratio IC50: 0.8
- STRUCTURE_AS_SMILES: "Fc1ccc(-c2nnn(CCCN3CCN(c4ccnc5cc(Cl)ccc45)CC3)n2)cc1"
  Ratio IC50: 1.96
- STRUCTURE_AS_SMILES: "O=C(Cn1nnc(-c2cccc(F)c2)n1)N1CCN(c2ccnc3cc(Cl)ccc23)CC1"
  Ratio IC50: 1.04
- STRUCTURE_AS_SMILES: "Clc1ccc(-c2nnn(CCCN3CCN(c4ccnc5cc(Cl)ccc45)CC3)n2)cc1"
  Ratio IC50: 2.58
- STRUCTURE_AS_SMILES: "O=C(Cn1nnc(-c2ccc([N+](=O)[O-])cc2)n1)N1CCN(c2ccnc3cc(Cl)ccc23)CC1"
  Ratio IC50: 1.36
- STRUCTURE_AS_SMILES: "Clc1cccc(-c2nnn(CCCN3CCN(c4ccnc5cc(Cl)ccc45)CC3)n2)c1"
  Ratio IC50: 1.87
- STRUCTURE_AS_SMILES: "Clc1ccc2c(N3CCN(CCCn4nnc(-c5cccc(Br)c5)n4)CC3)ccnc2c1"
  Ratio IC50: 1.83

====

# EXPERIMENT_NOTES: Resistance index, ratio of IC50 of chloroquine resistant Plasmodium falciparum INDO to chloroquine sensitive Plasmodium falciparum 3D7
# Assay type: functional
MEASUREMENT_KIND: Ratio IC50

- STRUCTURE_AS_SMILES: "Clc1ccc2c(N3CCN(CCCn4nnc(-c5ccc(Br)cc5)n4)CC3)ccnc2c1"
  MEASUREMENT_KIND: "Ratio IC50"
  EXPERIMENTAL_RESULT: 1.21
- STRUCTURE_AS_SMILES: "Cc1ccc(-c2nnn(CCCN3CCN(c4ccnc5cc(Cl)ccc45)CC3)n2)cc1"
  MEASUREMENT_KIND: "Ratio IC50"
  EXPERIMENTAL_RESULT: 0.79
- STRUCTURE_AS_SMILES: "O=C(Cn1nnc(-c2ccc(Br)cc2)n1)N1CCN(c2ccnc3cc(Cl)ccc23)CC1"
  MEASUREMENT_KIND: "Ratio IC50"
  EXPERIMENTAL_RESULT: 0.64
- STRUCTURE_AS_SMILES: "CC(C)c1ccc(-c2nnn(CCCN3CCN(c4ccnc5cc(Cl)ccc45)CC3)n2)cc1"
  MEASUREMENT_KIND: "Ratio IC50"
  EXPERIMENTAL_RESULT: 2.69
- STRUCTURE_AS_SMILES: "Fc1cccc(-c2nnn(CCCN3CCN(c4ccnc5cc(Cl)ccc45)CC3)n2)c1"
  MEASUREMENT_KIND: "Ratio IC50"
  EXPERIMENTAL_RESULT: 0.62
- STRUCTURE_AS_SMILES: "O=C(Cn1nnc(-c2ccc(F)cc2)n1)N1CCN(c2ccnc3cc(Cl)ccc23)CC1"
  MEASUREMENT_KIND: "Ratio IC50"
  EXPERIMENTAL_RESULT: 0.8
- STRUCTURE_AS_SMILES: "O=C(Cn1nnc(-c2ccc(Cl)cc2)n1)N1CCN(c2ccnc3cc(Cl)ccc23)CC1"
  MEASUREMENT_KIND: "Ratio IC50"
  EXPERIMENTAL_RESULT: 0.43
- STRUCTURE_AS_SMILES: "O=C(Cn1nnc(-c2cccc(Cl)c2)n1)N1CCN(c2ccnc3cc(Cl)ccc23)CC1"
  MEASUREMENT_KIND: "Ratio IC50"
  EXPERIMENTAL_RESULT: 0.47
- STRUCTURE_AS_SMILES: "COc1ccc(-c2nnn(CCCN3CCN(c4ccnc5cc(Cl)ccc45)CC3)n2)cc1OC"
  MEASUREMENT_KIND: "Ratio IC50"
  EXPERIMENTAL_RESULT: 1.23
- STRUCTURE_AS_SMILES: "O=[N+]([O-])c1cccc(-c2nnn(CCCN3CCN(c4ccnc5cc(Cl)ccc45)CC3)n2)c1"
  MEASUREMENT_KIND: "Ratio IC50"
  EXPERIMENTAL_RESULT: 1.76
- STRUCTURE_AS_SMILES: "O=C(Cn1nnc(-c2cccc(Br)c2)n1)N1CCN(c2ccnc3cc(Cl)ccc23)CC1"
  MEASUREMENT_KIND: "Ratio IC50"
  EXPERIMENTAL_RESULT: 0.86

====

# System: Plasmodium falciparum
# EXPERIMENT_NOTES: Antiplasmodial activity against chloroquine resistant Plasmodium falciparum INDO infected in human erythrocytes assessed as inhibition of parasite growth incubated for 72 hrs by SYBR green I staining based fluorescence plate reader analysis
# Type: functional, organism-based
# MEASUREMENT_CONDITIONS: Erythrocyte
pIC50: −log10 of the molar value.
MEASUREMENT_KIND: pIC50

- STRUCTURE_AS_SMILES: "O=C(Cn1nnc(-c2cccc(Br)c2)n1)N1CCN(c2ccnc3cc(Cl)ccc23)CC1"
  MEASUREMENT_KIND: "pIC50"
  EXPERIMENTAL_RESULT: 5.05
- STRUCTURE_AS_SMILES: "Clc1ccc(-c2nnn(CCCN3CCN(c4ccnc5cc(Cl)ccc45)CC3)n2)cc1"
  MEASUREMENT_KIND: "pIC50"
  EXPERIMENTAL_RESULT: 5.54
- STRUCTURE_AS_SMILES: "COc1cccc(-c2nnn(CCCN3CCN(c4ccnc5cc(Cl)ccc45)CC3)n2)c1"
  MEASUREMENT_KIND: "pIC50"
  EXPERIMENTAL_RESULT: 5.12
- STRUCTURE_AS_SMILES: "O=C(Cn1nnc(-c2ccc(F)cc2)n1)N1CCN(c2ccnc3cc(Cl)ccc23)CC1"
  MEASUREMENT_KIND: "pIC50"
  EXPERIMENTAL_RESULT: 4.91
- STRUCTURE_AS_SMILES: "CC(C)c1ccc(-c2nnn(CCCN3CCN(c4ccnc5cc(Cl)ccc45)CC3)n2)cc1"
  MEASUREMENT_KIND: "pIC50"
  EXPERIMENTAL_RESULT: 5.08
- STRUCTURE_AS_SMILES: "O=C(Cn1nnc(-c2cccc([N+](=O)[O-])c2)n1)N1CCN(c2ccnc3cc(Cl)ccc23)CC1"
  MEASUREMENT_KIND: "pIC50"
  EXPERIMENTAL_RESULT: 5.75
- STRUCTURE_AS_SMILES: "Clc1ccc2c(N3CCN(CCCn4nnc(-c5cccc(Br)c5)n4)CC3)ccnc2c1"
  MEASUREMENT_KIND: "pIC50"
  EXPERIMENTAL_RESULT: 5.15
- STRUCTURE_AS_SMILES: "COc1ccc(-c2nnn(CCCN3CCN(c4ccnc5cc(Cl)ccc45)CC3)n2)cc1OC"
  MEASUREMENT_KIND: "pIC50"
  EXPERIMENTAL_RESULT: 5.22
- STRUCTURE_AS_SMILES: "O=[N+]([O-])c1cccc(-c2nnn(CCCN3CCN(c4ccnc5cc(Cl)ccc45)CC3)n2)c1"
  MEASUREMENT_KIND: "pIC50"
  EXPERIMENTAL_RESULT: 4.79
- STRUCTURE_AS_SMILES: "O=C(Cn1nnc(-c2ccc(Br)cc2)n1)N1CCN(c2ccnc3cc(Cl)ccc23)CC1"
  MEASUREMENT_KIND: "pIC50"
  EXPERIMENTAL_RESULT: 4.95
- STRUCTURE_AS_SMILES: "Cc1ccc(-c2nnn(CCCN3CCN(c4ccnc5cc(Cl)ccc45)CC3)n2)cc1"
  MEASUREMENT_KIND: "pIC50"
  EXPERIMENTAL_RESULT: 5.20
- STRUCTURE_AS_SMILES: "O=C(Cn1nnc(-c2cccc(F)c2)n1)N1CCN(c2ccnc3cc(Cl)ccc23)CC1"
  MEASUREMENT_KIND: "pIC50"
  EXPERIMENTAL_RESULT: 5.07
- STRUCTURE_AS_SMILES: "Fc1ccc(-c2nnn(CCCN3CCN(c4ccnc5cc(Cl)ccc45)CC3)n2)cc1"
  MEASUREMENT_KIND: "pIC50"
  EXPERIMENTAL_RESULT: 5.39
- STRUCTURE_AS_SMILES: "O=C(Cn1nnc(-c2ccc(Cl)cc2)n1)N1CCN(c2ccnc3cc(Cl)ccc23)CC1"
  MEASUREMENT_KIND: "pIC50"
  EXPERIMENTAL_RESULT: 4.86
- STRUCTURE_AS_SMILES: "CC(C)c1ccc(-c2nnn(CC(=O)N3CCN(c4ccnc5cc(Cl)ccc45)CC3)n2)cc1"
  MEASUREMENT_KIND: "pIC50"
  EXPERIMENTAL_RESULT: 5.18
- STRUCTURE_AS_SMILES: "O=C(Cn1nnc(-c2cccc(Cl)c2)n1)N1CCN(c2ccnc3cc(Cl)ccc23)CC1"
  MEASUREMENT_KIND: "pIC50"
  EXPERIMENTAL_RESULT: 5.23
- STRUCTURE_AS_SMILES: "Clc1cccc(-c2nnn(CCCN3CCN(c4ccnc5cc(Cl)ccc45)CC3)n2)c1"
  MEASUREMENT_KIND: "pIC50"
  EXPERIMENTAL_RESULT: 4.70
- STRUCTURE_AS_SMILES: "O=C(Cn1nnc(-c2ccc([N+](=O)[O-])cc2)n1)N1CCN(c2ccnc3cc(Cl)ccc23)CC1"
  MEASUREMENT_KIND: "pIC50"
  EXPERIMENTAL_RESULT: 5.65
- STRUCTURE_AS_SMILES: "Clc1ccc2c(N3CCN(CCCn4nnc(-c5ccc(Br)cc5)n4)CC3)ccnc2c1"
  MEASUREMENT_KIND: "pIC50"
  EXPERIMENTAL_RESULT: 5.65
- STRUCTURE_AS_SMILES: "Fc1cccc(-c2nnn(CCCN3CCN(c4ccnc5cc(Cl)ccc45)CC3)n2)c1"
  MEASUREMENT_KIND: "pIC50"
  EXPERIMENTAL_RESULT: 4.85
